Biological target: 5-LOX (Homo sapiens)
Construct: purchased Sigma-Aldrich (local distributor) 437996
Sequence (P09917 1-674): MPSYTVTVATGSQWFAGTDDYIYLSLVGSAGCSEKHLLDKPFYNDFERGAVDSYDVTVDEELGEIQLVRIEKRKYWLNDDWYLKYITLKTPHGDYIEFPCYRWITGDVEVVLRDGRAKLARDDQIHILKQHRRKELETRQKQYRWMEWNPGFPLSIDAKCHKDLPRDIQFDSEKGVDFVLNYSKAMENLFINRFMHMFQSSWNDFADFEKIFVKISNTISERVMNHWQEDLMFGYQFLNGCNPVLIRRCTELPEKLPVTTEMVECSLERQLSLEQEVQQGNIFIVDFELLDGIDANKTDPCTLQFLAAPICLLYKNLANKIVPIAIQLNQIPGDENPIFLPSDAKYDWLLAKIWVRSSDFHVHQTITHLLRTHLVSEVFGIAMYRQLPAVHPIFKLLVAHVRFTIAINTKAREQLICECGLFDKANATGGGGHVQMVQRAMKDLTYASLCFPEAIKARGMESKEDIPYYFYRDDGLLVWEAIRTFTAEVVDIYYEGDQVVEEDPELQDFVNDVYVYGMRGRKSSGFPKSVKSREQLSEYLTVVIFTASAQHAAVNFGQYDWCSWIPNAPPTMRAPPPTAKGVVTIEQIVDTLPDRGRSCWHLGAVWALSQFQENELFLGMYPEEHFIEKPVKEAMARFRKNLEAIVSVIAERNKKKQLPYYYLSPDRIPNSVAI
Experiment: 5-Lipoxygenase (5-LOX) inhibition assay
Type: biochemical
Settings: 1,000 µg/mL; read-out: % 5-LOX inhibitions
Procedure: The 5-LOX inhibitory experiments on H. digitata samples were carried out as per published protocol ([Pervaiz et al., 2022]). Several concentrations of plant samples were made, with concentrations ranging from 31.25 to 1,000 μg/mL. […] Plant samples of varied quantities were dissolved in 250 µL of phosphate buffer, and then, 250 µL of the lipoxygenase enzyme solution was added and incubated for 5 min at room temperature. […] The absorbance at 234 nm was observed. […]
Label yes (1) for high-side inhibition at 1000 µg/mL (at or above 80%) and no (0) for low-side inhibition at 1000 µg/mL (below it).

Example entries begin here.
COMPOUND	CLASS LABEL
Cc1cnc(O)nc1O [Compound 1, 5-methylpyrimidine-24,4-diol]	yes (1)
C=Cc1ccc(O)cc1OC [Compound 4, 3-methoxy-4-vinylphenol]	no (0)
CC1=C(O)C(=O)C(O)CO1 (centres unmarked) [Compound 2]	yes (1)

Does the compound C=Cc1cc(OC)c(O)c(OC)c1 [Compound 5, 2,6-dimethoxy-4-vinylphenol] have recorded inhibition at 1000 µg/mL that is 80% or more?
yes (1)

Follow-up item: Cc1ccc(C(C)C)c(O)c1 [Compound 3, 2-isopropyl-5-methylphenol]
no (0)

---

Molecular target: COX-2 (Homo sapiens, UniProt P35354)
Sequence (P35354 18-604): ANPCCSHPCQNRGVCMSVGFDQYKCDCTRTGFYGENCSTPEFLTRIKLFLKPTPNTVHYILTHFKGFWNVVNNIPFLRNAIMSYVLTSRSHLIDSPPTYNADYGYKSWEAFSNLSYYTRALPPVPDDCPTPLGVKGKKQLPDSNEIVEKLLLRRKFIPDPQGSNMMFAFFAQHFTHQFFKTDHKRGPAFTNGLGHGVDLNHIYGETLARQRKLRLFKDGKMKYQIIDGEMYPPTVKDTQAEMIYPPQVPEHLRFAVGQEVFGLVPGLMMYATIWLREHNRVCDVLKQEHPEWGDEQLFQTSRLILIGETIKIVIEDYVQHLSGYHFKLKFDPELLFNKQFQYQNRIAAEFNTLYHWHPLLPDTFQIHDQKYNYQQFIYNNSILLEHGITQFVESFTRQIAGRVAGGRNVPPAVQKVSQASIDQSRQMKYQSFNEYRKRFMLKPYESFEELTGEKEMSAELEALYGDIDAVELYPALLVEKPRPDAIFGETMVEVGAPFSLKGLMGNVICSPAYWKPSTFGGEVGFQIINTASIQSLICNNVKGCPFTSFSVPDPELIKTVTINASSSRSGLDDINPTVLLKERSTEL
RESULT TYPE: pIC50
Bear in mind: pIC50 is minus log10 of a mol/L concentration; give just that figure.

Consider the worked cases shown below.
COMPOUND	pIC50
C=Cc1cc(OC)c(O)c(OC)c1 [Compound 5, 2,6-dimethoxy-4-vinylphenol]	3.66
CC1=C(O)C(=O)C(O)CO1 (stereo not shown) [Compound 2]	4.00
Cc1cnc(O)nc1O [Compound 1, 5-methylpyrimidine-24,4-diol]	4.07

We next turn to a different compound, shown below.
Quick check: pIC50 of Cc1ccc(C(C)C)c(O)c1 [Compound 3, 2-isopropyl-5-methylphenol] ?
3.84
